# target_system: Ataxin-2 (Homo sapiens) (UniProt Q99700)
# Sequence (Q99700 whole entry): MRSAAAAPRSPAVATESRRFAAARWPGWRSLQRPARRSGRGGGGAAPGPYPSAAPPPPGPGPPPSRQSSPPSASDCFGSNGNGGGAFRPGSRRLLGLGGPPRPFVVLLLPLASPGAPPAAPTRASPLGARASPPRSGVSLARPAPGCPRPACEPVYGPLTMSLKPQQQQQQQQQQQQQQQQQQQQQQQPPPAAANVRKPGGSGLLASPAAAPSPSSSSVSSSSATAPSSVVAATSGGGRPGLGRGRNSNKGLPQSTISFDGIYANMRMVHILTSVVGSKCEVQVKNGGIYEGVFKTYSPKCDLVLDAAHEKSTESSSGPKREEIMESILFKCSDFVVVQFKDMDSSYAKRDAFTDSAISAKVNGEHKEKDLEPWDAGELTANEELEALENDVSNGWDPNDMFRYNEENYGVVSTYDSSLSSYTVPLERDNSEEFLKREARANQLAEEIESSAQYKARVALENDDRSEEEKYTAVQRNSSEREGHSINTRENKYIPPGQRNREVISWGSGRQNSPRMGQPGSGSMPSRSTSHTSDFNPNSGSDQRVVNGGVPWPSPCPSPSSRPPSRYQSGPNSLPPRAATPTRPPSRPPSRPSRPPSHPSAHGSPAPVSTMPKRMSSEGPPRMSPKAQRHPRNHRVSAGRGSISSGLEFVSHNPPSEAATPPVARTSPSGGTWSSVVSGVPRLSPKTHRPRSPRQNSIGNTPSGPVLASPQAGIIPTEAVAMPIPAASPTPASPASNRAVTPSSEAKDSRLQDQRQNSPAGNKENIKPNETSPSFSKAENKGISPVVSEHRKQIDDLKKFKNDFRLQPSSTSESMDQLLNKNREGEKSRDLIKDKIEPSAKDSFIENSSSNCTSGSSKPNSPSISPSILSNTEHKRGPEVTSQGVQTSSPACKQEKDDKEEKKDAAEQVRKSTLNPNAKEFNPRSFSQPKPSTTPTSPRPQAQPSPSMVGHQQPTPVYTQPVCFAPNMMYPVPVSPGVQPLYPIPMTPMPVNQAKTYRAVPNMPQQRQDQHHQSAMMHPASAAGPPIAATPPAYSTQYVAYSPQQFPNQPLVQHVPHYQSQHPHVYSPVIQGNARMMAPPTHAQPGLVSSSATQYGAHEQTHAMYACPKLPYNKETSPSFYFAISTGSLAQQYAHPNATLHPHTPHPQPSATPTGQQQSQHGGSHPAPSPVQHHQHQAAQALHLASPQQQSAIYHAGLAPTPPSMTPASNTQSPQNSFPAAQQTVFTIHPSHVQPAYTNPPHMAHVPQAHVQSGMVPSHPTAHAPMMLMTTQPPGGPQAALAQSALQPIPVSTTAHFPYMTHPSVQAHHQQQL
# experimental_details: qHTS for Inhibitors of ATXN expression.
# Assay type: functional
The whole screen tested about 400,000 compounds, of which about 2,100 (0.53%) were called active. Inconclusive results (about 14%) are left out. The rule behind the calls is not given here. Only a selection was taken, and actives are over-represented in it overall.
Labels: active, inactive

compound | classification
CCOc1ccccc1-c1nc(-c2ccc(C)nc2OC)no1 | inactive
Cc1cccc(N(C(=O)c2nsc(Cl)c2Cl)C(C(=O)NC2CCCC2)c2ccc(O)cc2)c1C (stereo not given) | active
COc1ccc(-c2cc(Cl)cc3c(=O)c4ccccc4n(C)c23)cc1F | inactive
CCCCN(C(=O)NC(=O)C1=C(N2CCOCC2)/C(=C/c2ccccc2)CC1)S(C)(=O)=O | inactive
COc1ccc(-c2cc(=O)oc3cc(O)ccc23)cc1 | inactive
O=[N+]([O-])c1ccc(-c2nc(-c3ccncc3)no2)cc1 | inactive
COc1ccc(-c2cc3ccc(O)cc3oc2=O)cc1OC | inactive
C=CCN(c1ccccc1)S(=O)(=O)c1cccc(C(=O)Oc2ccc3c(C)cc(=O)oc3c2)c1 | inactive
CC(=O)c1c(C)oc2ccc(N(C(C)=O)S(=O)(=O)c3ccc(Cl)c([N+](=O)[O-])c3)cc12 | active
CC1=CC2=NC(=O)/C(=C/c3coc4ccc(Cl)cc4c3=O)C(=N)N2O1 | inactive

----------
# target_system: Ataxin-2 (Homo sapiens)
# experimental_details: qHTS for Inhibitors of ATXN expression.
# Assay type: functional
The whole screen tested about 400,000 compounds, of which about 2,100 (0.53%) were called active. Roughly 14% stayed inconclusive and do not appear here. How the calls were made is not given here. The entries come from a sample that favours actives as a whole.
Outcome codes: yes for active, no for inactive

compound | classification
CSc1ccc(NC(=O)NCCCN2CCC(Cc3ccccc3)CC2)cc1 | yes
CCN(CC)S(=O)(=O)c1ccc(C(=O)OCCN2C(=O)c3cccc4c(N5CCOCC5)ccc(c34)C2=O)cc1 | no
Cc1cccn2c(=O)c(C=C(C#N)C#N)c(N3CCN(c4ccccc4)CC3)nc12 | no
CCc1cccc(NC(=O)C2CCN(c3ncnc4sc(C)c(C)c34)CC2)c1 | yes
Cc1ccc(OCCCCN2CCCCC2)cc1 | no
CCN(CCCNC(=O)c1cc2cc3ccc(OC)cc3nc2s1)c1cccc(C)c1 | yes
Cc1cc(Oc2nc3c(C)cccn3c(=O)c2/C=C(\C#N)S(=O)(=O)c2ccccc2)ccc1Cl | yes
N#CC1=C(N)N2C(=C(C#N)C1c1ccc(Br)cc1)Nc1ccccc12 (stereo unspecified) | no
OC(c1ccccc1)(c1ccccc1)C1CCN(CCCOc2cccc(OC(F)(F)F)c2)CC1 | yes
N#Cc1c(C(F)(F)F)cc(-c2ccco2)nc1SCc1ccncc1 | no
O=C(c1coc(=O)c(Br)c1)N1CCC(C(O)(c2ccccc2)c2ccccc2)CC1 | no
CCCc1nn(-c2ccc([N+](=O)[O-])cc2)c(O)c1/C=N/CCCn1ccnc1 | no
O=c1oc2c(CN3CCN(CCO)CC3)c(O)ccc2cc1-c1ccccn1 | no
CCN(CCCNC(=O)c1cc(Nc2ccc(OC)cc2)nc2ccccc12)c1cccc(C)c1 | no
COc1ccc(-c2onc3ccc(C(C)=O)cc23)cc1 | no
CNC(=O)/C(C#N)=C/c1c(N2CCN(c3ccccc3)CC2)nc2c(C)cccn2c1=O | no
COCC(C)OC(=O)c1c(N)n(CCCN2CCOCC2)c2nc3ccccc3nc12 (stereo unspecified) | no
COc1ccc(-c2cc3c(=O)n(CC(=O)NCc4ccc(Cl)cc4)ncn3n2)cc1 | no
O=C(Nc1ccccc1)Nc1ccccc1C(=O)NCCCN1CCOCC1 | no
NNC(=O)c1cc2c(N3CCC(Cc4ccccc4)CC3)ncnc2s1 | no
COC/C=C/C1=CC2=CC(=O)C(C)(OC(=O)c3cnc4ccccc4n3)C(=O)C2=CN1Cc1ccccc1 (stereo unspecified) | yes
